Ref: PubChem BioAssay (NCI)

System: OVCAR-3 ovarian
Experiment: NCI tumour cell line growth inhibition, 48 h
experimental endpoint: TGI

Some compounds with recorded TGI:
NNc1nnc(-c2nnc(NN)o2)o1 | > 10 µM
CCCc1[nH]c2ccccc2c1-c1c(CCC)[nH]c2ccccc12 | 21.4 µM
O=C(O)c1cc(CCc2cc(O)ccc2O)ccc1O | > 100 µM
Cc1[nH]c(-c2cc(N)ccc2Cl)c2c1C(=O)CCCC2 | 32.5 µM
COc1cccc(Oc2ccccc2NC(=O)CNC(=O)c2cccc3ccccc23)c1 | 1.25 µM
C=C1[C@@H](O)O[C@H]2[C@H]1C[C@H](OC(C)=O)[C@]13C(=O)O[C@H]4C[C@](C)(O)[C@H]([C@H]41)C31C=C(C)[C@]2(O)O1 | 32.6 µM
COc1cccc(C(=O)C#Cc2cnc(OC)nc2OC)c1 | 3.62 µM
COc1cc2ncc3c(nc4sccn43)c2cc1OC | 42 µM

What value of measured TGI is listed for CC1(C)CC(=O)c2c(nc3c4c([nH]c(-c5ccc(Br)cc5)c24)CC(C)(C)C3)C1 ?
> 100 µM

What value of measured TGI is listed for COc1cccc(/N=N/C(=NNC(=O)c2ccc(C)cc2)c2ccc(N(C)C)cc2)c1 ?
> 100 µM

What value of measured TGI is listed for O=C1C(OCCOc2ccccc2)=C(OCCOc2ccccc2)C(=O)c2ccccc21 ?
> 100 µM

What value of measured TGI is listed for FC(F)(F)c1cccc(-c2nn3ncccc3c2-c2ccnc(Nc3ccc4c(c3)OCCO4)n2)c1 ?
> 25 µM

What value of measured TGI is listed for CCOC(=O)/C(I)=C/c1cc(OC)c(OC)c(OC)c1 ?
14.1 µM

What value of measured TGI is listed for O=C(Cc1nc2ccccc2o1)C(=O)Nc1cccc(C(F)(F)F)c1 ?
> 100 µM

What value of measured TGI is listed for CN1CCN(c2ccc3c(c2)NCC(=O)N3)CC1 ?
> 100 µM

What value of measured TGI is listed for CO/N=C1/c2sccc2[C@H](NC(=O)C(Cc2ccccc2)NC(=O)OC(C)(C)C)[C@@H]1O (stereo partly specified) ?
> 100 µM

What value of measured TGI is listed for C[C@@H]1Cc2cc(O)ccc2[C@H]2CC[C@]3(C)/C(=C/COCCN(C)C)CC[C@H]3[C@H]12 (tested in a mixture with another compound) ?
0.344 µM

What value of measured TGI is listed for CC(=O)O[C@@H]1C[C@@]2(C)[C@@H]3CC=C4[C@@H](C[C@H](O)C(=O)C4(C)C)[C@]3(C)C(=O)C[C@]2(C)[C@H]1[C@@](C)(O)C(=O)/C=C/C(C)(C)OC(C)=O ?
> 100 µM

What value of measured TGI is listed for CNNC(=NS(=O)(=O)c1cc(C#N)c(NNC)cc1S)NNC ?
> 10 µM

What value of measured TGI is listed for O=C(O)CCNS(=O)(=O)c1ccc([N+](=O)[O-])cc1 ?
> 100 µM

What value of measured TGI is listed for Cc1cc(NS(=O)(=O)c2ccc(NC(=O)c3cccc4c(Nc5ccc(S(N)(=O)=O)cc5)c5ccccc5nc34)cc2)no1 ?
> 100 µM

What value of measured TGI is listed for COc1ccc(C(=O)/C=C/c2ccc(OCC#N)cc2)cc1 ?
> 100 µM

What value of measured TGI is listed for CCc1c(C)nc2sc3c(N)ncnc3c2c1C ?
> 25 µM

What value of measured TGI is listed for COC(=O)C(C(=O)C(=O)Nc1ccc([N+](=O)[O-])cc1)c1nc2ccc([N+](=O)[O-])cc2[nH]c1=O (stereo unspecified) ?
> 100 µM

What value of measured TGI is listed for O=C1Cc2c([nH]c3ccc(C(=O)O)cc23)-c2ccccc2N1 ?
> 100 µM

What value of measured TGI is listed for C[n+]1c2ccccc2nc2c(N)cc(N)cc21 ?
22.8 µM
